- test-system: ITK (Homo sapiens)
- experimental-details: ITK degradation HiBiT assay
- Assay type: cell-based
- Parameters: expressed in transfected cells; host or cells: Molt4 (ATCC CRL-1552), monoclonal clone 1C10, engineered to carry the HiBiT tag
- cond: MOLT-4, C-terminal HiBiT-tagged Molt4 cells, 4 hrs
parameter: Dmax

| compound | result |
| --- | --- |
| C[C@@]12Cc3[nH]nc(C(=O)Nc4cnn(C5CCN(C(=O)C6CCC(Cn7cc8cc(C9CCC(=O)NC9=O)ccc8n7)CC6)CC5)c4)c3C[C@@H]1C2(F)F (mixture of isomers) | 86% |
| C[C@@H](C(=O)N(C)c1ccc2cc(-c3n[nH]c4c3CCC(C)(C)C4)[nH]c2c1)N1CCN(C[C@H]2CCN(c3ccc4c(c3)CN(C3CCC(=O)NC3=O)C4=O)C2)CC1 (stereo partly drawn) | 86% |
| C[C@@]12Cc3[nH]nc(-c4cc5cc(C(=O)N6CCN(CC7CCN(c8ccc(C(=O)N[C@H]9CCC(=O)NC9=O)nc8)CC7)CC6)ccc5[nH]4)c3C[C@@H]1C2(F)F | 80% |
| C[C@@]12Cc3[nH]nc(C(=O)Nc4cnn(CC5CN(C[C@H]6CCN(c7ccc8c(c7)C(=O)N(C7CCC(=O)NC7=O)C8=O)C6)C5)c4)c3C[C@@H]1C2(F)F (stereo partly drawn) | 88% |

Problem: Name the recorded Dmax of the compound listed here: C[C@@]12Cc3[nH]nc(C(=O)Nc4ccc(C5CCN(CC6CCN(c7ccc(C8CCC(=O)NC8=O)cc7)CC6)CC5)nc4)c3C[C@@H]1C2(F)F (stereo partly drawn)
Result: 88%

Problem: Give me measured Dmax, please, for this compound: C[C@@]12Cc3[nH]nc(C(=O)Nc4cnn(C5CCN(CC6CCN(c7ccc(N8CCC(=O)NC8=O)cc7)CC6)CC5)c4)c3C[C@@H]1C2(F)F
Result: 65%

Problem: Determine its reported Dmax: C[C@@H](C(=O)N(C)c1ccc2cc(-c3n[nH]c4c3CCC(C)(C)C4)[nH]c2c1)N1CCN(C[C@H]2CCN(c3ccc4c(c3)C(=O)N(C3CCC(=O)NC3=O)C4=O)C2)CC1 (stereo partly drawn)
Result: 85%

Problem: Complete the entry with Dmax for C[C@@H](C(=O)N(C)c1ccc2cc(-c3n[nH]c4c3C[C@@H]3C(F)(F)[C@]3(C)C4)[nH]c2c1)N1CCN(CC2CCN(c3cc(C4CCC(=O)NC4=O)ccn3)CC2)CC1 (stereo partly drawn)
Result: 82%

Problem: Quote Dmax reported for C[C@@]12Cc3[nH]nc(C(=O)Nc4cnn(C5CCN(CC6CCN(c7ccc(C8CCC(=O)NC8=O)cc7)CC6)CC5)c4)c3C[C@@H]1C2(F)F (stereo partly drawn) please.
Result: 89%

Problem: Return Dmax for the following compound: C[C@@]12Cc3[nH]nc(-c4nc5ccc(C(=O)N6CCN(CC7CCN(c8ccc(C9CCC(=O)NC9=O)cc8)CC7)CC6)cc5[nH]4)c3C[C@@H]1C2(F)F (mixture of isomers)
Result: 87%

Problem: Please give measured Dmax of the following entry: CC1(C)CCc2c(-c3cc4ccc(C(=O)N5CCC(C6CCN(c7ccc(C8CCC(=O)NC8=O)cn7)CC6)CC5)cc4[nH]3)n[nH]c2C1 (stereo not drawn)
Result: 69%

---

- test-system: ITK (Homo sapiens)
- Sequence (Q08881 1-620): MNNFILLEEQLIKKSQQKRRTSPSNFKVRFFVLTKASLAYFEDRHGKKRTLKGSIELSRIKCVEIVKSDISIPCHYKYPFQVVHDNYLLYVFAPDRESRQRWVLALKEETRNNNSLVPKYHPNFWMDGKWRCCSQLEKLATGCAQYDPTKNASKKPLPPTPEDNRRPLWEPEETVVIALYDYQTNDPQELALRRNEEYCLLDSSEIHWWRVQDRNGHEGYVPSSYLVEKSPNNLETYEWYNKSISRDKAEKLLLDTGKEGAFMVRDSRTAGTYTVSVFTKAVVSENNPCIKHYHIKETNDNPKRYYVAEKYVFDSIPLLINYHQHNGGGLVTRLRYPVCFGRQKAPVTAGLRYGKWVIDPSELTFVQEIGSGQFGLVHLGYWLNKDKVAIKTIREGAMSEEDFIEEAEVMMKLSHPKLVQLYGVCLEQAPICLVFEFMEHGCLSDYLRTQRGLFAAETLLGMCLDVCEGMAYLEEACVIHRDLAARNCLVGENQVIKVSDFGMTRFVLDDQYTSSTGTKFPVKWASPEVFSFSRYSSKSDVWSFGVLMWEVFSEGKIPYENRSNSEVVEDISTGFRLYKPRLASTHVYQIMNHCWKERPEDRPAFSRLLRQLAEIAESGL
- experimental-details: ITK degradation HiBiT assay
- Assay type: cell-based
- Set-up: expressed in transfected cells; host or cells: Molt4 (ATCC CRL-1552), monoclonal clone 1C10, engineered to carry the HiBiT tag
- cond: MOLT-4, C-terminal HiBiT-tagged Molt4 cells, 4 hrs
parameter: Dmax (%)
Entry rule: numbers only, all in %.

| molecule | result-units | Dmax |
| --- | --- | --- |
| C[C@@H](C(=O)N(C)c1ccc2cc(-c3n[nH]c4c3C[C@@H]3C(F)(F)[C@]3(C)C4)[nH]c2c1)N1CCN(CC2CCN(c3cccc4c3n(C)c(=O)n4C3CCC(=O)NC3=O)CC2)CC1 (some centres unmarked) [Compound 65] | % | 80 |
| C[C@@H](C(=O)N(C)c1ccc2cc(-c3n[nH]c4c3C[C@@H]3C(F)(F)[C@]3(C)C4)[nH]c2c1)N1CCN(CC2CCN(c3ccc(C(=O)NC4CCC(=O)NC4=O)nc3)CC2)CC1 (some centres unmarked) [Compound 66] | % | 71 |
| CC1(C)CCc2c(-c3cc4ccc(C(=O)N5CCC(CN6CCN(c7ccc(C8CCC(=O)NC8=O)cn7)CC6)CC5)cc4[nH]3)n[nH]c2C1 (centres unmarked) [Compound 59] | % | 81 |
| COc1cc(N2CCC(CN3CCN(C(=O)c4ccc5cc(-c6n[nH]c7c6CCC(C)(C)C7)[nH]c5c4)CC3)CC2)ccc1C1CCC(=O)NC1=O (centres unmarked) [Compound 184] | % | 70 |

Problem: Report Dmax, nothing else, for this molecule: C[C@@]12Cc3[nH]nc(C(=O)Nc4cnn([C@H]5CCN(C[C@@H]6CCN(c7ccc(C8CCC(=O)NC8=O)cc7)C6)C[C@@H]5F)c4)c3C[C@@H]1C2(F)F (some centres unmarked) [Compound 100]
Result: 86
